System: human MAO-B (Homo sapiens)
Construct: purchased Sigma-Aldrich
Sequence (P27338 whole entry): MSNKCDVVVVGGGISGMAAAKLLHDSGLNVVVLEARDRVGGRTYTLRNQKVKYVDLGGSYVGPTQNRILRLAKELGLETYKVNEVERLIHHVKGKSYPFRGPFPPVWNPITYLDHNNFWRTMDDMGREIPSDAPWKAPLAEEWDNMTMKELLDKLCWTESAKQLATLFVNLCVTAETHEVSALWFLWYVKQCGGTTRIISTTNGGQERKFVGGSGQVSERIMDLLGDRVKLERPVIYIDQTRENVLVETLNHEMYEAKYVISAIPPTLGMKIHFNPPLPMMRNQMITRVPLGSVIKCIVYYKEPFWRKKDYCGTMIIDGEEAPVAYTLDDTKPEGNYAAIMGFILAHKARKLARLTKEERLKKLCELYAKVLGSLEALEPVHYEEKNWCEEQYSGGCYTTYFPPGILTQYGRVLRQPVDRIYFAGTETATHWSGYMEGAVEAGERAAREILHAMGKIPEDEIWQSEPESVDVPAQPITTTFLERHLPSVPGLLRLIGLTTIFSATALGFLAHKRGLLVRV
Assay comment: IC50 determination for MAO-B inhibition (kynuramine, fluorescence)
Type: biochemical
Condition: recombinant hMAO-B, kynuramine 50 μM, mean ± SD (triplicate)
Measured property: IC50 (µM)
Answer in µM, number only, no unit symbol.

Here are 3 compounds together with their reported answers.
Entry smiles | Measured property | Numeric value
COc1ccccc1/C=C/C(=O)c1ccc(Br)cc1 | IC50 | 0.999
CN(C)c1ccc(/C=C/C(=O)c2ccc(C(F)(F)F)cc2)cc1 | IC50 | 0.383
O=C(/C=C/c1ccc([N+](=O)[O-])cc1)c1ccc2c(c1)OCO2 | IC50 | 0.069

Request: Item under review: O=C(/C=C/c1ccc(F)cc1)c1ccc2c(c1)OCO2 . Reported IC50?
Response: 0.043
